Target: GSPT1 protein (Homo sapiens, UniProt P15170)
Construct: The whole cell lysate was prepared using a RIPA lysis buffer; endogenous in cells; host or cells: NB-4 cells
Sequence (P15170 whole entry): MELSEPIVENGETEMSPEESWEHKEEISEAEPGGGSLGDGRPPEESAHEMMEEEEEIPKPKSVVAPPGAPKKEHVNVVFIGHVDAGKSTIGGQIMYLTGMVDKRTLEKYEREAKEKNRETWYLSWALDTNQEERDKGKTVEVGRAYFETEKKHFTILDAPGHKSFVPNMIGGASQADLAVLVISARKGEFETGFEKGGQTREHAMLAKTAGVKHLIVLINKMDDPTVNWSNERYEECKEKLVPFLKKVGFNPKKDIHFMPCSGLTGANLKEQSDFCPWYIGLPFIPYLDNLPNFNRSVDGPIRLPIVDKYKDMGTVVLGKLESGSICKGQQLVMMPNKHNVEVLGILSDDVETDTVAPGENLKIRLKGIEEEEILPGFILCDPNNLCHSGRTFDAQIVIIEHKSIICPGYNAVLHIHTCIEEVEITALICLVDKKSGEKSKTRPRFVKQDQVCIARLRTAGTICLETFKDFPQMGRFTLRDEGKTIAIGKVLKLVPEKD
Assay: Degradation of GSPT1 protein in NB-4 cells (Western blot)
Assay type: cell-based
Conditions: NB-4 cells, compound 1 μM, 6 h; read-out: GSPT1 degradation
Observation type: inhibition at 1 µM

Solved entries (count: 4):
INSERT INTO results (molecule, observation_type, obs_value) VALUES
  ('NCc1cc(F)c2c(c1)CN(C1CCC(=O)NC1=O)C2=O (stereo not drawn)', 'inhibition at 1 µM', '< 25%'),
  ('O=C(/C=C/c1ccc(Cl)cc1)NCc1ccc2c(c1F)CN(C1CCC(=O)NC1=O)C2=O (stereo not drawn)', 'inhibition at 1 µM', '> 80%'),
  ('O=C1CCC(N2Cc3c(ccc(CNC(=O)c4ccc(-c5ccccc5)cc4)c3F)C2=O)C(=O)N1 (stereo not drawn)', 'inhibition at 1 µM', '> 80%'),
  ('CC(=O)c1ccc(C(=O)NCc2ccc3c(c2F)CN(C2CCC(=O)NC2=O)C3=O)cc1 (stereo not drawn)', 'inhibition at 1 µM', '50 to 80%');

Task item: Can you look up inhibition at 1 µM on GSPT1 protein (Homo sapiens, UniProt P15170) for O=C1CCC(N2Cc3cc(CNC(=O)c4cc5ccccc5o4)c(Cl)cc3C2=O)C(=O)N1 (stereo not drawn) ?
Reply: < 25%

Task item: Provide value of inhibition at 1 µM for this record tested with GSPT1 protein (Homo sapiens, UniProt P15170): COc1cc(C)c(/C=C/C(C)=C/C=C/C(C)=C/C(=O)NCc2ccc3c(c2F)CN(C2CCC(=O)NC2=O)C3=O)c(C)c1C (stereo not drawn)
Reply: > 80%

* * *

Tested on: NCI-H929 cells
Assay: Antiproliferative effect alone and in combination with dexamethasone against NCI-H929 cells
Format: cell-based
Conditions: Homo sapiens, NCI-H929, 72 h, 72 h, in combination with 500 nM dexamethasone
Observation type: pIC50
Please keep in mind that pIC50 is minus log10 of the molar concentration; only the number is needed.

Task item: Hello, I am looking for reported pIC50 with NCI-H929 cells for O=C1CCC(N2Cc3c(ccc(CNC(=O)c4ccc(Cl)cc4)c3F)C2=O)C(=O)N1 (stereo not shown) . Could you help?
Reply: 8.61

* * *

Catalogue of compounds with associated hERG inhibition rate
Target: hERG potassium channel (Homo sapiens)
Construct: expressed in transfected cells; host or cells: HEK293 cells
Sequence (Q12809 whole entry): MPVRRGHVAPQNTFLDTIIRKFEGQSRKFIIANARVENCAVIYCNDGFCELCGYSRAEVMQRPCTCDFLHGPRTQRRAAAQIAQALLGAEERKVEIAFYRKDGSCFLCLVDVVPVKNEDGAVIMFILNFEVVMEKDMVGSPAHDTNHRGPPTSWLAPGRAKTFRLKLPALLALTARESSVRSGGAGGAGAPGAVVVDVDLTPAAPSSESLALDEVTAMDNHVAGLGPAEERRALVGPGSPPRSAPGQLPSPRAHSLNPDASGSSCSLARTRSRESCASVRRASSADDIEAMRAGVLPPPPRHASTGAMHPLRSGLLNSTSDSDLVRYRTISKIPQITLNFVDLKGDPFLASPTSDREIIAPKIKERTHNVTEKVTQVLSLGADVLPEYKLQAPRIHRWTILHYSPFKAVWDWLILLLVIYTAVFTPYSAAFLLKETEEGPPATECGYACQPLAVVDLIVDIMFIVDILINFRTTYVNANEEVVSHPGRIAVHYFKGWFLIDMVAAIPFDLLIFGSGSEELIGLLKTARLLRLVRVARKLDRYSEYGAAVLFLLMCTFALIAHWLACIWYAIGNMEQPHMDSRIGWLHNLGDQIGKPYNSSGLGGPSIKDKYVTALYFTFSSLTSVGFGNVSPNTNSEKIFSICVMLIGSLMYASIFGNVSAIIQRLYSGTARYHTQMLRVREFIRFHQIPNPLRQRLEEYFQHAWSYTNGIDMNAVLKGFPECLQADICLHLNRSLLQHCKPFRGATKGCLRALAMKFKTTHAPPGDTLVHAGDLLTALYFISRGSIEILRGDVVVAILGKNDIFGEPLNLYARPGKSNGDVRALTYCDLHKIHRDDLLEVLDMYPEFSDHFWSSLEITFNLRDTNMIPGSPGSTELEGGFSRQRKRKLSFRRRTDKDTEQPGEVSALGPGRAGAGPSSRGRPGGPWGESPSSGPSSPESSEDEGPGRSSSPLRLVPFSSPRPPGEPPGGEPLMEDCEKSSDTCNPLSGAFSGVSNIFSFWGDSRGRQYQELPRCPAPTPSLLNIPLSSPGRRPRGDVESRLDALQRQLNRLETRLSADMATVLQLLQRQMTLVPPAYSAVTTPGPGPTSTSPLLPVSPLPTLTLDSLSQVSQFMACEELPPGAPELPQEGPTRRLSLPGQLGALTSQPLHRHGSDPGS
Assay: hERG inhibition assay (automated patch clamp, HEK293)
Format: cell-based
Details: 3 μM, HEK293 cells, QPatch
Report only the number, with the unit % understood.

Below, 4 compounds whose answers are already recorded.
INSERT INTO results (compound, obs_value) VALUES
  ('O=C1CCC(N2Cc3c(ccc(CNC(=O)c4ccc(Cl)cc4)c3F)C2=O)C(=O)N1 (centres unmarked) [FDAB-48]', 25),
  ('O=C1CCC(N2Cc3cc(CNC(=O)C(F)(F)c4ccc(Cl)cc4)ccc3C2=O)C(=O)N1 (centres unmarked) [CC-90009, reference compound]', 66),
  ('Cc1ccc(C(=O)NCc2ccc3c(c2F)CN(C2CCC(=O)NC2=O)C3=O)cc1F (centres unmarked) [FDAB-120]', 13),
  ('Cc1ccc(C(=O)NCc2ccc3c(c2F)CN(C2CCC(=O)NC2=O)C3=O)cc1 (centres unmarked) [FDAB-65]', 11);

Next:
Task item: Quick one: hERG inhibition rate of Cc1ccc(C(=O)NCc2ccc3c(c2F)CN(C2CCC(=O)NC2=O)C3=O)c(F)c1 (centres unmarked) [FDAB-121] ?
Reply: 9
